tested on: OVCAR-8; experiment: NCI tumour cell line growth inhibition, 48 h
Active and inactive are the calls of the source. Rule as the data show it: active = GI50 up to about 1.1 µM and inactive = higher.
Pick one: active, inactive

Some solved entries appear below for comparison.
Ask: Dear all, I need the recorded test outcome for COC1OC(C)C(NC(=O)OCC(Cl)(Cl)Cl)C2OC(C)(C)OC12 (stereo not given) , thank you.
Result: inactive

Ask: Try the compound BrC1=CC=C2NCCCCCC/N=C3\C=CC(Br)=CC=C3NCCCCCC/N=C\2C=C1
Result: inactive

Ask: Try the compound O=C(NO)c1ccc([N+](=O)[O-])cc1
Result: inactive

Ask: Try the compound Clc1ccc(SC(/C=C/NNC2=NN=C(c3ccccc3)C(c3ccccc3)N2)c2ccccc2)cc1 (stereo not given)
Result: inactive

Ask: Try the compound Cc1ccc2c(c1)CC1(Cc3cc(C)ccc3C1=O)C2=O
Result: inactive

Ask: Try the compound CCOC(=O)c1cc(-c2ccc([N+](=O)[O-])cc2)c([N+](=O)[O-])[nH]1
Result: inactive

Further cases:
Ask: Dear all, I need the recorded test outcome for COC(=O)CCC(=O)N1C/C(=C\c2ccccc2)C(=O)/C(=C/c2ccccc2)C1 , thank you.
Result: inactive

Ask: Try the compound O=S(=O)(Sc1ccc(Cl)cc1)c1ccc(Cl)cc1
Result: inactive

Ask: Try the compound O=C1CCCCC2N(C(c3ccccc3)c3ccccc3)CC[C@@]12c1ccccc1.O=C1CCCC[C@H]2N(C(c3ccccc3)c3ccccc3)CC[C@@]12c1ccccc1 (stereo not given in full)
Result: inactive

Ask: Try the compound COc1ccc2[nH]c3c(C)c4ccncc4c(C)c3c2c1
Result: active
